- System: HS 578T breast
- method_notes: NCI tumour cell line growth inhibition, 48 h
metric: TGI

Previously resolved entries follow.
COc1cc(/C=N/NC(=O)c2c(Cl)c(Cl)c(Cl)c(Cl)c2-c2nc3ccc(C(=O)c4ccccc4)cc3[nH]2)ccc1O | > 100 µM
O=S(=O)(CC(Cl)c1ccccc1)c1nc2ccccc2s1 (stereo not given) | > 69 µM
O=C1OC2(c3ccc(O)cc3Oc3cc(O)ccc32)c2cccc3cccc1c23 | > 100 µM

Consider COc1cccc([C@@H]2C/C(=N\NC(=O)C(=O)N[C@@H](C)c3ccccc3)c3ccccc3N2)c1 . Its measured TGI is > 100 µM

Consider CC(C(=O)NCNC(=O)c1ccccc1)C(=O)Nc1ccccc1 (stereo not given) . Its measured TGI is > 100 µM
